Cited source for all entries: PubChem BioAssay (NCI)

- System: SK-OV-3 ovarian
- procedure.summary: NCI tumour cell line growth inhibition, 48 h
parameter: TGI (µM)
Use µM as the unit, but write only the number.

Please review the entries below; each comes with its answer.
| compound | TGI [µM] |
| --- | --- |
| COc1ccc2c(c1)C(=O)/C(=C/c1ncc([N+](=O)[O-])n1C)O2 | 6.43 |
| COc1ccc(-c2ccc(-c3ccc(-c4ccc(C(=N)N)cc4)s3)s2)cc1OC | 37.3 |
| CCOC(=O)/C=C/C(C(=O)/C=C/c1ccc(O)c(OC)c1)=C(O)\C=C\c1ccc(O)c(OC)c1 | 25.4 |
| Nc1ccccc1N/C=C\C(=O)C(Cl)(Cl)Cl | 70.8 |
| CN(C)C(=O)c1cc2cnc(Nc3ccc(-c4csc5c(=O)cc(N6CCOCC6)oc45)cc3)nc2n1C1CCCC1 | 2.88 |

// O=C(Cc1cccc(OC(F)(F)F)c1)Nc1ccc(CCCCc2nnc(NC(=O)Cc3ccccn3)s2)nn1 : TGI value = 25.1

// CN1CCN(Cc2ccc(NC(=O)c3ccc(C#Cc4c(N)ncc5ccc(F)cc45)cc3)cc2C(F)(F)F)CC1 : TGI value = 7.63

// C=C1C(=O)OCC2C(C(=O)O)=CC3C(C)C(C)=CC123 (stereo not given) : TGI value = 79.5

// O=C(c1ccco1)c1c(C(F)(F)F)n([O-])c2ccccc2[n+]1=O : TGI value = 21

// COC(=O)/C=C(/C(=O)OC)c1c(C)c(C)c2c(C)cc(C)cc(C)c1-2 : TGI value = 76.8
